Listing of recorded viability at 10 µM by entry.
System: HCT-15
assay explanation: Antiproliferative activity against human HCT15 cells assessed as cell viability at 10^-5 M incubated for 48 hrs by sulforhodamine B assay relative to control
Assay type: functional
condition summary: HCT-15, 48 h, read-out: Activity
readout label: viability at 10 µM (%)

- COc1cc2c(c3c1OCCO3)C(=O)NC1C2CC(O)C(O)C1O (racemic): 102
- O=C1NC2C(CC(O)C(O)C2O)c2cc3c(cc21)OCCO3 (racemic): 103
- COc1c2c(cc3c1C(=O)NC1C3CC(O)C(O)C1O)OCCO2 (racemic): 102

###

Tested on: NCI-H322M
assay explanation: Antiproliferative activity against human NCI-H322M cells assessed as cell viability at 10^-5 M incubated for 48 hrs by sulforhodamine B assay relative to control
Type: functional
condition summary: read-out: Activity
Listed next: entries and their corresponding viability at 10 µM.
readout label: viability at 10 µM (%)

• COc1cc2c(c3c1OCCO3)C(=O)NC1C2CC(O)C(O)C1O (racemic) = 97.3
• COc1c2c(cc3c1C(=O)NC1C3CC(O)C(O)C1O)OCCO2 (racemic) = 93.5
• O=C1NC2C(CC(O)C(O)C2O)c2cc3c(c(O)c21)OCO3 (racemic) = -14.7
• CCOc1c(OC)cc2c(c1O)C(=O)NC1C2CC(O)C(O)C1O (racemic) = 103
• CCCOc1cc2c(cc1OCC)C1CC(O)C(O)C(O)C1NC2=O (racemic) = 104
• CCOc1cc2c(cc1OCC)C1CC(O)C(O)C(O)C1NC2=O (racemic) = 95.2
• CCOc1c(OC)cc2c(c1OCC)C(=O)NC1C2CC(O)C(O)C1O (racemic) = 98.6
• O=C1NC2C(CC(O)C(O)C2O)c2cc3c(cc21)OCCO3 (racemic) = 104
